Tested on: cellular dehydrogenase activity
Details: Conc 20 μM; normalized score vs mock-treated (DMSO) wells
READOUT: MTT (composite Z-score)

1) CCC(C)C(OC(C)=O)C(=O)O[C@H]1[C@H](O)[C@@H]2[C@@]3(C)C=CC(=O)C(C)(C)[C@@H]3C[C@@H](OC(=O)C(O)C(C)C)[C@@]2(C)[C@@]23O[C@@H]2C[C@@H](c2ccoc2)[C@]13C (stereo partly drawn) [heudelottin C, reference compound] : −0.393
2) CC1(C)C2C[C@@H](O)[C@]3(C)C(CC[C@@]4(C)[C@H](c5ccoc5)OC(=O)C5OC543)[C@@]2(C)C(=O)C[C@H]1O (stereo partly drawn) : −1.776
3) CC(C)CCC[C@@H](C)C1CC[C@H]2[C@@H]3CCC4CC(=O)CC[C@]4(C)[C@H]3CC[C@]12C (stereo partly drawn) : −2.192

Origin of values: patent US20090143279A1
